assay: Stability indicating HPLC assay and related substances on storage (Example 3); format: physicochemical; settings: 1 month, 25° C./60% RH
Note to self: values exactly at 0.6% are Met. So Total Unknown at or above 0.6% is Met, below is Not met.

// below: answered molecules
# Molecule, Group Label
measured = [
    ("CN1CC[C@]23c4c5ccc(O)c4O[C@H]2[C@@H](O[C@@H]2O[C@H](C(=O)O)[C@@H](O)[C@H](O)[C@H]2O)C=C[C@H]3[C@H]1C5 [Morphine-6-glucuronide base, morphine-6-β-D-glucuronide]", "Not met"),
    ("CN1CCC23c4c5ccc(O)c4OC2C(OC2OC(C(=O)O)C(O)C(O)C2O)C=CC3C1C5.CN1CCC23c4c5ccc(O)c4OC2C(OC2OC(C(=O)O)C(O)C(O)C2O)C=CC3C1C5.O=C(O)C=CC(=O)O (stereo not shown) [Morphine-6-glucuronide fumarate]", "Not met"),
]

[Q] Quick check, Total Unknown >= 0.6%? CN1CCC23c4c5ccc(O)c4OC2C(OC2OC(C(=O)O)C(O)C(O)C2O)C=CC3C1C5.CN1CCC23c4c5ccc(O)c4OC2C(OC2OC(C(=O)O)C(O)C(O)C2O)C=CC3C1C5.O=C(O)C=CC(=O)O (stereo not shown) [Morphine-6-glucuronide maleate]
[A] Not met

[Q] Entry CN1CCC23c4c5ccc(O)c4OC2C(OC2OC(C(=O)O)C(O)C(O)C2O)C=CC3C1C5.CN1CCC23c4c5ccc(O)c4OC2C(OC2OC(C(=O)O)C(O)C(O)C2O)C=CC3C1C5.O=S(=O)(O)O (stereo not shown) [Morphine-6-glucuronide sulphate] please
[A] Met

[Q] Entry CN1CC[C@]23c4c5ccc(O)c4O[C@H]2[C@@H](O[C@@H]2O[C@H](C(=O)O)[C@@H](O)[C@H](O)[C@H]2O)C=C[C@H]3[C@H]1C5.Cl [Morphine-6-glucuronide hydrochloride] please
[A] Met

[Q] Entry Br.CN1CC[C@]23c4c5ccc(O)c4O[C@H]2[C@@H](O[C@@H]2O[C@H](C(=O)O)[C@@H](O)[C@H](O)[C@H]2O)C=C[C@H]3[C@H]1C5 [Morphine-6-glucuronide hydrobromide] please
[A] Not met

[Q] Entry CN1CCC23c4c5ccc(O)c4OC2C(OC2OC(C(=O)O)C(O)C(O)C2O)C=CC3C1C5.O=P(O)(O)O (stereo not shown) [Morphine-6-glucuronide phosphate] please
[A] Not met

====

assay: Water content by Karl Fisher analysis on storage (Example 3); type: physicochemical; details: 1 month, 60° C.
Mark 1 (yes) only for Moisture values smaller than 5 % w/w; exact matches and larger values are 0 (no).

# Compound, Group Label
data = [
    ("CN1CC[C@]23c4c5ccc(O)c4O[C@H]2[C@@H](O[C@@H]2O[C@H](C(=O)O)[C@@H](O)[C@H](O)[C@H]2O)C=C[C@H]3[C@H]1C5.Cl [Morphine-6-glucuronide hydrochloride]", "1 (yes)"),
    ("CN1CCC23c4c5ccc(O)c4OC2C(OC2OC(C(=O)O)C(O)C(O)C2O)C=CC3C1C5.CN1CCC23c4c5ccc(O)c4OC2C(OC2OC(C(=O)O)C(O)C(O)C2O)C=CC3C1C5.O=S(=O)(O)O (stereo not shown) [Morphine-6-glucuronide sulphate]", "1 (yes)"),
]

[Q] # check: Moisture < 5 % w/w for CN1CCC23c4c5ccc(O)c4OC2C(OC2OC(C(=O)O)C(O)C(O)C2O)C=CC3C1C5.CN1CCC23c4c5ccc(O)c4OC2C(OC2OC(C(=O)O)C(O)C(O)C2O)C=CC3C1C5.O=C(O)C=CC(=O)O (stereo not shown) [Morphine-6-glucuronide fumarate]
[A] 0 (no)

[Q] Entry Br.CN1CC[C@]23c4c5ccc(O)c4O[C@H]2[C@@H](O[C@@H]2O[C@H](C(=O)O)[C@@H](O)[C@H](O)[C@H]2O)C=C[C@H]3[C@H]1C5 [Morphine-6-glucuronide hydrobromide] please
[A] 1 (yes)

[Q] Entry CN1CC[C@]23c4c5ccc(O)c4O[C@H]2[C@@H](O[C@@H]2O[C@H](C(=O)O)[C@@H](O)[C@H](O)[C@H]2O)C=C[C@H]3[C@H]1C5 [Morphine-6-glucuronide base, morphine-6-β-D-glucuronide] please
[A] 0 (no)

====

assay: Stability indicating HPLC assay and related substances on storage (Example 3); type: physicochemical; conditions: 3 months, 25° C./60% RH
Total Unknown values, listed per item
Give the number; % is assumed, so skip it.

Some solved entries appear below for comparison.
# Molecule, Measurement Units, Number
rows = [
    ("CN1CCC23c4c5ccc(O)c4OC2C(OC2OC(C(=O)O)C(O)C(O)C2O)C=CC3C1C5.CN1CCC23c4c5ccc(O)c4OC2C(OC2OC(C(=O)O)C(O)C(O)C2O)C=CC3C1C5.O=C(O)C=CC(=O)O (centres unmarked) [Morphine-6-glucuronide fumarate]", "%", 0.72),
    ("CN1CC[C@]23c4c5ccc(O)c4O[C@H]2[C@@H](O[C@@H]2O[C@H](C(=O)O)[C@@H](O)[C@H](O)[C@H]2O)C=C[C@H]3[C@H]1C5 [Morphine-6-glucuronide base, morphine-6-β-D-glucuronide]", "%", 0.52),
    ("CN1CCC23c4c5ccc(O)c4OC2C(OC2OC(C(=O)O)C(O)C(O)C2O)C=CC3C1C5.O=P(O)(O)O (centres unmarked) [Morphine-6-glucuronide phosphate]", "%", 1.08),
]

[Q] Need Total Unknown, item Br.CN1CC[C@]23c4c5ccc(O)c4O[C@H]2[C@@H](O[C@@H]2O[C@H](C(=O)O)[C@@H](O)[C@H](O)[C@H]2O)C=C[C@H]3[C@H]1C5 [Morphine-6-glucuronide hydrobromide]
[A] 0.12

[Q] Entry CN1CCC23c4c5ccc(O)c4OC2C(OC2OC(C(=O)O)C(O)C(O)C2O)C=CC3C1C5.CN1CCC23c4c5ccc(O)c4OC2C(OC2OC(C(=O)O)C(O)C(O)C2O)C=CC3C1C5.O=C(O)C=CC(=O)O (centres unmarked) [Morphine-6-glucuronide maleate] please
[A] 2.35

====

assay: Stability indicating HPLC assay and related substances on storage (Example 3); assay type: physicochemical; conditions: 1 month, 40° C./75% RH
Note to self: values exactly at 80 % w/w are true (1). So M6G Assay, As is basis at or above 80 % w/w is true (1), below is false (0).

# Molecule, Group Label
data = [
    ("CN1CC[C@]23c4c5ccc(O)c4O[C@H]2[C@@H](O[C@@H]2O[C@H](C(=O)O)[C@@H](O)[C@H](O)[C@H]2O)C=C[C@H]3[C@H]1C5 [Morphine-6-glucuronide base, morphine-6-β-D-glucuronide]", "true (1)"),
    ("CN1CCC23c4c5ccc(O)c4OC2C(OC2OC(C(=O)O)C(O)C(O)C2O)C=CC3C1C5.CN1CCC23c4c5ccc(O)c4OC2C(OC2OC(C(=O)O)C(O)C(O)C2O)C=CC3C1C5.O=C(O)C=CC(=O)O (centres unmarked) [Morphine-6-glucuronide maleate]", "false (0)"),
]

[Q] Quick check, M6G Assay, As is basis >= 80 % w/w? Br.CN1CC[C@]23c4c5ccc(O)c4O[C@H]2[C@@H](O[C@@H]2O[C@H](C(=O)O)[C@@H](O)[C@H](O)[C@H]2O)C=C[C@H]3[C@H]1C5 [Morphine-6-glucuronide hydrobromide]
[A] true (1)

====

Known Related Substances HN67003 values, listed per item
assay: Stability indicating HPLC assay and related substances on storage (Example 3); assay type: physicochemical; details: Initial
Give the number; % is assumed, so skip it.

# Compound, Assay Endpoint, Number
rows = [
    ("CN1CCC23c4c5ccc(O)c4OC2C(OC2OC(C(=O)O)C(O)C(O)C2O)C=CC3C1C5.CN1CCC23c4c5ccc(O)c4OC2C(OC2OC(C(=O)O)C(O)C(O)C2O)C=CC3C1C5.O=C(O)C=CC(=O)O (centres unmarked) [Morphine-6-glucuronide maleate]", "Known Related Substances HN67003", 0.04),
]

Let's switch to this compound now.
[Q] Need Known Related Substances HN67003, item CN1CCC23c4c5ccc(O)c4OC2C(OC2OC(C(=O)O)C(O)C(O)C2O)C=CC3C1C5.CN1CCC23c4c5ccc(O)c4OC2C(OC2OC(C(=O)O)C(O)C(O)C2O)C=CC3C1C5.O=S(=O)(O)O (centres unmarked) [Morphine-6-glucuronide sulphate]
[A] 0.15

====

Known Related Substances HN33177 values, listed per item
test: Stability indicating HPLC assay and related substances on storage (Example 3); assay type: physicochemical; details: 1 month, 60° C.
Give the number; % is assumed, so skip it.

# Compound, Measurement Units, Known Related Substances HN33177
rows = [
    ("CN1CCC23c4c5ccc(O)c4OC2C(OC2OC(C(=O)O)C(O)C(O)C2O)C=CC3C1C5.CN1CCC23c4c5ccc(O)c4OC2C(OC2OC(C(=O)O)C(O)C(O)C2O)C=CC3C1C5.O=C(O)C=CC(=O)O (stereo not drawn) [Morphine-6-glucuronide fumarate]", "%", 0.62),
    ("CN1CCC23c4c5ccc(O)c4OC2C(OC2OC(C(=O)O)C(O)C(O)C2O)C=CC3C1C5.O=P(O)(O)O (stereo not drawn) [Morphine-6-glucuronide phosphate]", "%", 0.70),
]

Let's switch to this compound now.
[Q] Need Known Related Substances HN33177, item CN1CC[C@]23c4c5ccc(O)c4O[C@H]2[C@@H](O[C@@H]2O[C@H](C(=O)O)[C@@H](O)[C@H](O)[C@H]2O)C=C[C@H]3[C@H]1C5 [Morphine-6-glucuronide base, morphine-6-β-D-glucuronide]
[A] 0.83
